assay: Pharmacokinetic study on ICR mice (plasma, LC-MS/MS); type: in vivo; details: male, mouse, 5 mg/kg, oral intake, read-out: Area under curve AUC0-∞
READOUT NAME: AUC(0-inf) (ng·h/mL)

C[C@H]1Nc2ccn3nc(N)c(c3n2)C(=O)NC[C@@]2(C)Cc3cc(F)cc1c3O2 : 4850
C[C@H]1Nc2ccn3ncc(c3n2)C(=O)NCC2(C)Cc3cc(F)cc1c3O2 (stereo partly shown) : 6040

1 = C[C@H]1CNC(=O)c2cnn3ccc(nc23)N[C@H](C)c2cc(F)ccc2O1 [repotrectinib, reference compound]
2 = C[C@H]1Nc2ccn3ncc(c3n2)C(=O)NC[C@@]2(C)Cc3cc(F)cc1c3O2
Of 1 and 2 , which one carries the higher reported AUC(0-inf)? Record your answer as the label of the chosen record.
2

###

molecular target: TRKA (Homo sapiens, UniProt P04629); construct: purchased Carna bioscience 08-186; assay: HTRF KinEASE-TK kinase activity inhibition assay, TRKA; format: biochemical; details: ATP 100 µM
Sequence (P04629 33-796): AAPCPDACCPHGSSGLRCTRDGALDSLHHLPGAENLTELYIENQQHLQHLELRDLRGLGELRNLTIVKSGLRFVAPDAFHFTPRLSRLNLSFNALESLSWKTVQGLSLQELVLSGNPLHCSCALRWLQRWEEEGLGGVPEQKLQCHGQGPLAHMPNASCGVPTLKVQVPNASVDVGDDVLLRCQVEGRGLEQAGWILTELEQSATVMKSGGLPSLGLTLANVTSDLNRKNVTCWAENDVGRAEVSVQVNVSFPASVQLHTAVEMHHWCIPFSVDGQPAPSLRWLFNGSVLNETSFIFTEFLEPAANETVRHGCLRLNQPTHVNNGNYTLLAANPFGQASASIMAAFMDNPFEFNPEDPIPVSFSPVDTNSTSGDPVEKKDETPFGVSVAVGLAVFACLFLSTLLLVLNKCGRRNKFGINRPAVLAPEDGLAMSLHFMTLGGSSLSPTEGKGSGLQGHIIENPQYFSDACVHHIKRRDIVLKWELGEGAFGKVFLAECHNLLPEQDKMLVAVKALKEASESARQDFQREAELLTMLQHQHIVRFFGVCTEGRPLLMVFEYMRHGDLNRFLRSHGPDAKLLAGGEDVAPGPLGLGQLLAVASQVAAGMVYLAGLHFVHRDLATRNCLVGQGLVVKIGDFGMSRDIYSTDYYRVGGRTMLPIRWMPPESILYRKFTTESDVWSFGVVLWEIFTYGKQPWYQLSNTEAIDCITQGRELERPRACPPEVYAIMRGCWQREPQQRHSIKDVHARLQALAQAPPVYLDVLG
READOUT NAME: IC50 (nM)

C[C@H]1Nc2ccn3ncc(c3n2)C(=O)NCC2(CF)Cc3cc(F)cc1c3O2 (some centres unmarked) : 0.63
C[C@H]1Nc2ccn3nc(N)c(c3n2)C(=O)NC[C@@]2(C)Cc3cc(F)cc1c3O2 : 0.82
C[C@H]1Nc2ccc3ncc(n3n2)C(=O)NC[C@@]2(C)Cc3cc(F)cc1c3O2 : 0.97

I = C[C@H]1Nc2ccn3ncc(c3n2)C(=O)NCC2(C)Cc3cc(Cl)cc1c3O2 (some centres unmarked)
II = C[C@H]1Nc2ccn3ncc(c3n2)C(=O)NCC[C@@]2(C)Cc3cc(F)cc1c3O2
III = C[C@H]1Nc2ccn3ncc(c3n2)C(=O)NCC[C@]2(C)Cc3cc(F)cc1c3O2
IV = C[C@H]1Nc2ccn3ncc(c3n2)C(=O)NC[C@@]2(C)Cc3cc(F)cc1c3O2
# rank_down: sort by IC50, max first A ranking is expressed here by listing the labels in the requested order.
III, II, I, IV
(III: 18.5 nM, II: 5.9 nM, I: 0.98 nM, IV: 0.56 nM)

###

experiment: Pharmacokinetic study on ICR mice (plasma, LC-MS/MS); format: in vivo; settings: male, mouse, 5 mg/kg oral intake vs 1 mg/kg injection, read-out: Bioavailability F(%)
READOUT NAME: bioavailability (%)

C[C@H]1Nc2ccn3ncc(c3n2)C(=O)NC[C@@]2(C)Cc3cc(F)cc1c3O2 : 53
C[C@H]1Nc2ccn3ncc(c3n2)C(=O)NCC2(C)Cc3cc(F)cc1c3O2 (stereo partly shown) : 65

I = C[C@H]1Nc2ccn3nc(N)c(c3n2)C(=O)NC[C@@]2(C)Cc3cc(F)cc1c3O2
II = C[C@H]1CNC(=O)c2cnn3ccc(nc23)N[C@H](C)c2cc(F)ccc2O1 [repotrectinib, reference compound]
Of I and II , which one carries the higher reported bioavailability? Record your answer as the label of the chosen record.
I
(I: 47%, II: 13%)

###

assay: Pharmacokinetic study on ICR mice (plasma, LC-MS/MS); format: in vivo; conditions: male, mouse, intravenous, 1 mg/kg, injection, read-out: Area under curve AUC0-∞
READOUT NAME: AUC(0-inf) (ng·h/mL)

C[C@H]1Nc2ccn3ncc(c3n2)C(=O)NCC2(C)Cc3cc(F)cc1c3O2 (stereo partly shown) : 1850
C[C@H]1Nc2ccn3nc(N)c(c3n2)C(=O)NC[C@@]2(C)Cc3cc(F)cc1c3O2 : 2060

P = C[C@H]1Nc2ccn3ncc(c3n2)C(=O)NC[C@@]2(C)Cc3cc(F)cc1c3O2
Q = C[C@H]1CNC(=O)c2cnn3ccc(nc23)N[C@H](C)c2cc(F)ccc2O1 [repotrectinib, reference compound]
Dear colleague, could you let me know whether P or Q has the lower recorded AUC(0-inf)? Thanks. Record your answer as the label of the chosen record.
Q
(Q: 824 ng·h/mL, P: 2100 ng·h/mL)
